Data origin: patent US10047051B2

Assay system: CFTR ΔF508 mutant (Homo sapiens, UniProt P13569, DEL508-508)
Construct: expressed in transfected cells; host or cells: CFBE41o- cells, adenoviral transduction
Sequence (P13569 with tags, fused parts or gaps DEL508-508): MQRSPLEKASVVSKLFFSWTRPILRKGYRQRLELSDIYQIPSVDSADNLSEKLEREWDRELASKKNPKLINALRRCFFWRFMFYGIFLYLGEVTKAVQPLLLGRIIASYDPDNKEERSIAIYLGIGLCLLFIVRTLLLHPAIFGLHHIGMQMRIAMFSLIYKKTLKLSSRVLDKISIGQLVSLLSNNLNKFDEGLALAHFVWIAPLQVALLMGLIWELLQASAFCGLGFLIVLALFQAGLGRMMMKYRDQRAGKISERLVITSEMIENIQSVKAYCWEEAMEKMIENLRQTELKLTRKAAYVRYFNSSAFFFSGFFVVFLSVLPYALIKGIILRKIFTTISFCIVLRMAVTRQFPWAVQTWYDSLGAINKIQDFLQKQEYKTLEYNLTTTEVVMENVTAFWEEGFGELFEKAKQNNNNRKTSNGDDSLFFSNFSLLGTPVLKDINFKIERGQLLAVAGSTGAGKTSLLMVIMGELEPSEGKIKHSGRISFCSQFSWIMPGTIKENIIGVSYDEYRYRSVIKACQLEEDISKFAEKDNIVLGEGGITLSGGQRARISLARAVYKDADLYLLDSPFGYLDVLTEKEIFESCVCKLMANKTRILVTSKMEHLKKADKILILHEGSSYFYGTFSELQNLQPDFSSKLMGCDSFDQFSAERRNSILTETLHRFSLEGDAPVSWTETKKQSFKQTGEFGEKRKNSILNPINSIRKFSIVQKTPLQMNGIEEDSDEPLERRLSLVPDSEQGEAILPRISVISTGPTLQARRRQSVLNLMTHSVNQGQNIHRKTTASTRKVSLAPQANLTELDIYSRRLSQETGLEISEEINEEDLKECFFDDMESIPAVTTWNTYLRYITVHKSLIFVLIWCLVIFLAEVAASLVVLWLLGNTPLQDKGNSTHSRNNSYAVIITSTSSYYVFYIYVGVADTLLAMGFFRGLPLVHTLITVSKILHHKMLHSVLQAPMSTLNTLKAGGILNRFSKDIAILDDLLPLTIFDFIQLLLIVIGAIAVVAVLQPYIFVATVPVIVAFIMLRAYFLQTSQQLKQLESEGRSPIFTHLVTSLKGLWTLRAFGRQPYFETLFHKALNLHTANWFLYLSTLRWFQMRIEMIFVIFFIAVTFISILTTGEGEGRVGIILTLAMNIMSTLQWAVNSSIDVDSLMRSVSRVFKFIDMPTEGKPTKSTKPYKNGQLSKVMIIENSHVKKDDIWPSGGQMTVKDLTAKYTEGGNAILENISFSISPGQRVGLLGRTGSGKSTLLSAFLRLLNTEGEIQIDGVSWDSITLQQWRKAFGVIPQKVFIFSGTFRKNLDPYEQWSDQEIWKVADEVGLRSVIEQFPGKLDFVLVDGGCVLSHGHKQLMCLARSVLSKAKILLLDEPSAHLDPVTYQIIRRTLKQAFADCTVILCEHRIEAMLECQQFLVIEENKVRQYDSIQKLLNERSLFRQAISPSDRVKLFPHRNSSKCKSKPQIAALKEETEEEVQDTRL
Procedure text: YFP-halide influx assay for the CFTR-ΔF508 mutation (CFBE41o- cells)
Format: cell-based
Assay context: forskolin 10.67 μM
Reported % Activation values follow for various compounds
Please respond with the number in % and leave the unit unwritten.

Examples from the recorded data:
- Compound: "COCCC(C)(O)CNC(=O)c1ncc(S(=O)(=O)c2ccc(C(F)(F)F)cc2)cc1N (stereo not drawn)"
  Readout unit: "%"
  % Activation: 98.3
- Compound: "CC(C)(O)CNC(=O)c1ncc(S(=O)(=O)c2ccc(OC(F)(F)F)cc2)cc1N"
  Readout unit: "%"
  % Activation: 97.9
- Compound: "CC1CCOCC1CNC(=O)c1ncc(S(=O)(=O)c2ccc(OC(F)(F)F)cc2)cc1N (stereo not drawn)"
  Readout unit: "%"
  % Activation: 94.0

The measured % Activation associated with "Nc1cc(S(=O)(=O)c2ccc(F)cc2)c(Br)nc1C(=O)NC[C@@H](O)C(F)(F)F" reads 111.5

The measured % Activation associated with "Nc1cc(S(=O)(=O)c2ccc(OC(F)(F)F)cc2)cnc1C(=O)NCC1CC1" reads 108.0

The measured % Activation associated with "Nc1cc(S(=O)(=O)c2ccc(OC(F)(F)F)cc2)cnc1C(=O)NC1CC(F)(F)C1" reads 83.2

The measured % Activation associated with Nc1cc(S(=O)(=O)c2ccc(C(F)(F)F)cc2F)cnc1C(=O)N[C@@H]1COCC[C@@H]1O (racemic) reads 105.8

The measured % Activation associated with "CO[C@H]1CCC[C@@H]1NC(=O)c1ncc(S(=O)(=O)c2ccc(C(F)(F)F)cc2)cc1N" reads 87.8

The measured % Activation associated with CN(Cc1ccc(F)cc1)S(=O)(=O)c1cnc(C(=O)NCC(O)C(F)(F)F)c(N)c1 (stereo not drawn) reads 99.1

The measured % Activation associated with "Nc1cc(S(=O)(=O)c2ccc(C(F)(F)F)cc2F)cnc1C(=O)N1CC(C(F)(F)F)C1" reads 113.9

The measured % Activation associated with "CC1(F)CN(C(=O)c2ncc(S(=O)(=O)c3ccc(C(F)(F)F)cc3)cc2N)C1" reads 97.5

The measured % Activation associated with Nc1cc(S(=O)(=O)c2ccccc2OC(F)(F)F)cnc1C(=O)N[C@@H]1COCC[C@@H]1O (racemic) reads 98.3

The measured % Activation associated with CC1(C)CN(S(=O)(=O)c2cnc(C(=O)NCC(O)C(F)(F)F)c(N)c2)C1 (stereo not drawn) reads 114.1

The measured % Activation associated with "Nc1cc(S(=O)(=O)c2ccc(OC(F)(F)F)cc2F)cnc1C(=O)N1CC(F)(F)C1" reads 95.9

The measured % Activation associated with "CC(C)(CCO)CNC(=O)c1ncc(S(=O)(=O)c2ccc(OC(F)(F)F)cc2)cc1N" reads 99.0

The measured % Activation associated with Nc1cc(S(=O)(=O)c2ccc(OC(F)(F)F)cc2)cnc1C(=O)NCCC(O)C(F)(F)F (stereo not drawn) reads 96.6

The measured % Activation associated with Nc1cc(S(=O)(=O)c2ccc(C(F)(F)F)cc2)cnc1C(=O)NCC(O)COCC1CC1 (stereo not drawn) reads 110.2

The measured % Activation associated with CC(C)Oc1ccc(S(=O)(=O)c2cnc(C(=O)NCC(O)C(F)(F)F)c(N)c2)cc1 (stereo not drawn) reads 106.5
